settings: bifidobacterium adolescentis, 12 h, 2 µM
readout_kind: Bacterial Biotransformation

Please review the following examples before continuing.
molecule: CCC(COC(=O)c1cc(OC)c(OC)c(OC)c1)(c1ccccc1)N(C)C.O=C(O)/C=C\C(=O)O (centres undefined)
Bacterial Biotransformation: Compound metabolized
//
molecule: OCCOCCN1CCN(C2=Nc3ccccc3Sc3ccccc32)CC1
Bacterial Biotransformation: Compound NOT metabolized
//
molecule: COc1ccc(CCN(C)CCCC(C#N)(c2ccc(OC)c(OC)c2)C(C)C)cc1OC (centres undefined)
Bacterial Biotransformation: Compound NOT metabolized
//
molecule: CCN(CC)CCOCCOC(=O)C1(c2ccccc2)CCCC1.O=C(O)CC(O)(CC(=O)O)C(=O)O [CARBETAPENTANE CITRATE]
Bacterial Biotransformation: Compound metabolized
//
molecule: CCCc1nc2c(C)cc(-c3nc4ccccc4n3C)cc2n1Cc1ccc(-c2ccccc2C(=O)O)cc1
Bacterial Biotransformation: Compound NOT metabolized
//
molecule: CCN(CC)CCNC(=O)c1cc(S(C)(=O)=O)ccc1OC [TIAPRIDE]
Bacterial Biotransformation: Compound NOT metabolized
//
molecule: CN(C)CCc1c[nH]c2ccc(CS(=O)(=O)N3CCCC3)cc12
Bacterial Biotransformation: Compound NOT metabolized
//
molecule: COc1cc2c(c(OC)c1OC)-c1ccc(OC)c(=O)cc1[C@@H](NC(C)=O)CC2
Bacterial Biotransformation: Compound NOT metabolized

# context switch: different molecule, same Bacterial Biotransformation
Would you kindly share the measured Bacterial Biotransformation for CN1C(=O)CC(C)(c2ccccc2)C1=O (centres undefined) [METHSUXIMIDE] ?
Compound NOT metabolized
